Reported activation at 1 µM values are given for each entry in this list.
# measured-on: glucocerebrosidase (Gcase) (Homo sapiens)
# Sequence (P04062 40-536): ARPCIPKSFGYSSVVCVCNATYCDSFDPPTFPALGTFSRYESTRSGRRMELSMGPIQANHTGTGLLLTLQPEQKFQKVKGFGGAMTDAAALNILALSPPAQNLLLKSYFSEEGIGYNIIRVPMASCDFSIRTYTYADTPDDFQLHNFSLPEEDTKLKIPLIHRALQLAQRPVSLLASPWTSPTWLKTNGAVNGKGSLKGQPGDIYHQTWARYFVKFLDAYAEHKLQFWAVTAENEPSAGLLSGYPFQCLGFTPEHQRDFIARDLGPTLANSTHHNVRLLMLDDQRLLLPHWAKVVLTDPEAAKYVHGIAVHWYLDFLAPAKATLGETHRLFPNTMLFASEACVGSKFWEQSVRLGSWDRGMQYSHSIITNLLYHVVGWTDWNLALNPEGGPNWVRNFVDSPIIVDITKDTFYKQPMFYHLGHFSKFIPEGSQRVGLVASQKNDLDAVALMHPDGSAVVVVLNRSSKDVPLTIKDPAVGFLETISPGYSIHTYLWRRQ
# procedure-text: Glucocerebrosidase (Gcase) activation assay, 4-methylumbelliferyl-beta-D-glucopyranoside substrate, with saposin C
# Format: biochemical
# test-settings: 1 μM test compound; read-out: Percent Gcase Activation 1 μM Test Compound
reported-property: activation at 1 µM

>>> experimental_result("Cc1cc(N2CCC(F)(F)C2)nc2c(C(=O)NC(C3CC3)C(F)(F)F)ncn12 (centres unmarked) [III-139]")
"> 60%"
>>> experimental_result("Cc1cc(-c2ccc(Cl)nc2)nc2c(C(=O)N[C@@H](C)C3CC3)ncn12 [III-75]")
"30 to 60%"
>>> experimental_result("Cc1cc(-c2cccc(F)c2)nc2c(C(=O)NC(C3CC3)C3CC3)ncn12 [III-133]")
"> 60%"
>>> experimental_result("Cc1cc(-c2cccc(F)c2)nc2c(C(=O)NC(C)(C)C)ncn12 [III-124]")
"> 60%"
>>> experimental_result("CO[C@H]1CC[C@H](C(C)(C)NC(=O)c2ncn3c(C)cc(-c4cccnc4)nc23)CC1 [III-73]")
"< 30%"

---

# procedure-text: Compound solubility in water
# Assay type: physicochemical
reported-property: log10 solubility (log10 of the value in µg/mL)

>>> experimental_result("Cc1cc(Oc2cccnc2)nc2c(C(=O)N[C@@H](C)C3CC3)ncn12")
1.52
>>> experimental_result("COc1cc(F)cc(-c2cc(C)n3cnc(C(=O)NC(C4CC4)C4CC4)c3n2)c1")
0.23
>>> experimental_result("COc1cc(F)cc(-c2cc(C)n3cnc(C(=O)NC(C4CC4)C(F)(F)F)c3n2)c1 (stereo not drawn)")
-1.00
>>> experimental_result("Cc1cc(-c2ccccc2C#N)nc2c(C(=O)NC(C3CC3)C(F)(F)F)ncn12 (stereo not drawn)")
-0.30
>>> experimental_result("COc1cccc(-c2cc(C)n3cnc(C(=O)NC(C)(C)C(F)(F)F)c3n2)c1")
0.63
>>> experimental_result("COc1cccc(-c2cc(C)n3cnc(C(=O)NC(C)(C)C)c3n2)c1")
0.15
>>> experimental_result("CCOc1cccc(-c2cc(C)n3cnc(C(=O)NC(C)(C)C4CC4)c3n2)n1")
-0.10
>>> experimental_result("Cc1cc(-c2cccc(F)c2)nc2c(C(=O)NC(C)(C)C(F)(F)F)ncn12")
-0.22
>>> experimental_result("COc1cccc(-c2cc(C)n3cnc(C(=O)N[C@@H](C)C4CC4)c3n2)n1")
0.72
>>> experimental_result("Cc1cc(-c2cccc(F)c2)nc2c(C(=O)NC(C3CC3)C(F)(F)F)ncn12 (stereo not drawn)")
-0.40
>>> experimental_result("COc1cccc(-c2cc(C)n3cnc(C(=O)NC(C)(C)C4CC4)c3n2)n1")
-0.05
>>> experimental_result("Cc1cc(-n2cccn2)nc2c(C(=O)NC(C)(C)C3CC3)ncn12")
1.02
>>> experimental_result("Cc1cc(-c2ccn3ccnc3c2)nc2c(C(=O)N[C@@H](C)C3CC3)ncn12")
0.45
>>> experimental_result("CCc1cc(-c2cccc(OC)c2)nc2c(C(=O)N[C@@H](C)C3CC3)ncn12")
0.26
>>> experimental_result("Cc1cc(N2CCC(F)(F)CC2)nc2c(C(=O)NC(C)(C)C3CC3)ncn12")
0.99
>>> experimental_result("Cc1cc(-c2ccc(F)cc2)nc2c(C(=O)N[C@@H](C)C3CCC3)ncn12")
0.48
>>> experimental_result("COc1ccccc1-c1cc(C)n2cnc(C(=O)NC(C)C3CC3)c2n1 (stereo not drawn)")
1.06
>>> experimental_result("Cc1cc(-c2cn(C)nn2)nc2c(C(=O)NC(C)(C)C3CC3)ncn12")
1.36
>>> experimental_result("Cc1cc(-c2ccccn2)nc2c(C(=O)NC(C)C3CC3)ncn12 (stereo not drawn)")
1.41
>>> experimental_result("COCCOc1cc(C)n2cnc(C(=O)N[C@@H](C)C3CC3)c2n1")
1.53
>>> experimental_result("Cc1cc(-c2ccccn2)nc2c(C(=O)NC(C)(C)C3CC3)ncn12")
0.60
>>> experimental_result("Cc1cc(OC(C)C)nc2c(C(=O)NC(C3CC3)C(F)(F)F)ncn12 (stereo not drawn)")
1.40
>>> experimental_result("Cc1cc(-c2ccc3ocnc3c2)nc2c(C(=O)N[C@@H](C)C3CC3)ncn12")
0.89
>>> experimental_result("Cc1cc(N2CCCC(F)(F)C2)nc2c(C(=O)N[C@@H](C)C3CC3)ncn12")
1.41
>>> experimental_result("COc1cc(-c2cc(C)n3cnc(C(=O)N[C@@H](C)C4CC4)c3n2)ccn1")
1.41
>>> experimental_result("C#Cc1cccc([C@@H](NC(=O)c2ncn3c(C)cc(C)nc23)C(F)(F)F)c1")
0.79
>>> experimental_result("Cc1cc(-c2ccc(F)cc2)n2cnc(C(=O)N[C@@H](C)C3CC3)c2n1")
1.40

---

# measured-on: glucocerebrosidase (Gcase) (Homo sapiens)
# procedure-text: Glucocerebrosidase (Gcase) activation assay, 4-methylumbelliferyl-beta-D-glucopyranoside substrate, with saposin C
# Format: biochemical
# test-settings: test compound at 0.1 μM; read-out: Percent Gcase Activation, 0.1 μM Test Compound
reported-property: activation at 0.1 µM

>>> experimental_result("Cc1cc(-c2ccccc2C#N)nc2c(C(=O)NC(C)(C)C)ncn12 [IV-109]")
"< 10%"
>>> experimental_result("Cc1cc(-c2ccco2)nc2c(C(=O)NC(C3CC3)C(F)(F)F)ncn12 (stereo not drawn) [IV-83]")
"> 20%"
>>> experimental_result("Cc1cc(-c2cccc(F)c2)nc2c(C(=O)N[C@@H](C3CC3)C(F)(F)F)ncn12 [IV-20]")
"> 20%"
>>> experimental_result("Cc1cc(-c2ccc3ocnc3c2)nc2c(C(=O)NC(C3CC3)C(F)(F)F)ncn12 (stereo not drawn) [IV-72]")
"> 20%"
>>> experimental_result("Cc1cc(-c2cccc3nccn23)nc2c(C(=O)NC(C3CC3)C(F)(F)F)ncn12 (stereo not drawn) [IV-25]")
"< 10%"
>>> experimental_result("COc1cccc(-c2cc(C)n3cnc(C(=O)N[C@H](C4CC4)C(F)(F)F)c3n2)n1 [IV-13]")
"> 20%"
>>> experimental_result("Cc1cc(C#N)c(-c2cc(C)n3cnc(C(=O)NC(C4CC4)C(F)(F)F)c3n2)o1 (stereo not drawn) [IV-92]")
"> 20%"
>>> experimental_result("Cc1cc(-c2ccc3c(c2)OCO3)nc2c(C(=O)N[C@@H](C)C(F)(F)F)ncn12 [IV-78]")
"> 20%"
>>> experimental_result("Cc1cc(-c2cscc2C#N)nc2c(C(=O)NC(C3CC3)C(F)(F)F)ncn12 (stereo not drawn) [IV-32]")
"> 20%"
>>> experimental_result("COc1ccc(-c2cc(C)n3cnc(C(=O)NC(C4CC4)C(F)(F)F)c3n2)cc1F (stereo not drawn) [IV-70]")
"> 20%"
>>> experimental_result("Cc1cc(N2CCCC(F)(F)C2)nc2c(C(=O)NC(C3CC3)C(F)(F)F)ncn12 (stereo not drawn) [IV-113]")
"> 20%"
>>> experimental_result("Cc1cc(-c2cccc(-c3ncccn3)c2)nc2c(C(=O)NC(C3CC3)C(F)(F)F)ncn12 (stereo not drawn) [IV- 61]")
"> 20%"
>>> experimental_result("Cc1cc(-c2nccs2)nc2c(C(=O)NC(C)(C)C)ncn12 [IV-54]")
"< 10%"
>>> experimental_result("Cc1cc(N2CCCN(C(C)C)C2=O)nc2c(C(=O)NC(C3CC3)C(F)(F)F)ncn12 (stereo not drawn) [IV-89]")
"< 10%"
>>> experimental_result("COc1c(C#N)cccc1-c1cc(C)n2cnc(C(=O)NC(C3CC3)C(F)(F)F)c2n1 (stereo not drawn) [IV-67]")
"< 10%"
>>> experimental_result("Cc1cc(-c2ccc3c(c2)OCO3)nc2c(C(=O)NC(C)C(F)(F)F)ncn12 (stereo not drawn) [IV-76]")
"> 20%"
>>> experimental_result("COc1cc(F)cc(-c2cc(C)n3cnc(C(=O)N[C@H](C)C(F)(F)F)c3n2)c1 [IV-58]")
"> 20%"
>>> experimental_result("Cc1cc(-c2cccc(OC(F)(F)F)n2)nc2c(C(=O)N[C@@H](C)C3CC3)ncn12 [IV-101]")
"> 20%"
>>> experimental_result("Cc1cc(-c2cccc3scnc23)nc2c(C(=O)NC(C3CC3)C(F)(F)F)ncn12 (stereo not drawn) [IV-47]")
"< 10%"
>>> experimental_result("Cc1cc(NC(=O)c2ccccc2)nc2c(C(=O)NC(C3CC3)C(F)(F)F)ncn12 (stereo not drawn) [IV-6]")
"< 10%"
>>> experimental_result("Cc1cc(-c2ccc3c(c2)OCO3)nc2c(C(=O)N[C@@H](C)C3CC3)ncn12 [IV-28]")
"> 20%"
>>> experimental_result("Cc1nscc1-c1cc(C)n2cnc(C(=O)N[C@H](C3CC3)C(F)(F)F)c2n1 [IV-96]")
"10 to 20%"
>>> experimental_result("Cc1cc(-c2cccc(F)c2)nc2c(C(=O)N[C@H](C3CC3)C(F)(F)F)ncn12 [IV-19]")
"> 20%"
>>> experimental_result("CCCCO[C@H]1C[C@H]2CC[C@@H](C1)[C@@H]2NC(=O)c1ncn2c(COC)cc(C)nc12 [IV-3]")
"< 10%"
>>> experimental_result("C#CC(C)(C)NC(=O)c1ncn2c(C)cc(-c3cccc4c3OCO4)nc12 [IV-27]")
"< 10%"
>>> experimental_result("Cc1cc(-c2cccc(-c3ncncn3)c2)nc2c(C(=O)NC(C3CC3)C(F)(F)F)ncn12 (stereo not drawn) [IV-79]")
"> 20%"
>>> experimental_result("C#CC(C)(C)NC(=O)c1ncn2c(C)cc(-c3ccc4c(c3)OCO4)nc12 [IV-26]")
"10 to 20%"
